- System: Ramos
- assay_method_text: Cytotoxicity against human Ramos cells assessed as reduction in cell viability after 24 hrs by CellTiter-Glo assay
- Type: functional, cell-based
Quick reference: IC50 of the listed items.
# output: bare number, implied unit µM

- C=C1C(=O)[C@@H]2C3=C(CC[C@@H]4C(C)(C)CCC[C@@]34C)C[C@H]1[C@@H]2O: 5.1

Note: attention shifts to another entry.
Query block: Can you look up the measured IC50 of `C=C1C(=O)[C@H]2C3=C(CC[C@H]4C(C)(C)CCC[C@]34C)C[C@@H]1[C@H]2O` for me?
Result block: 1.9
